Source of measurements: patent US20070244048A1

Target system: T1, mouse NMUR1-ATG (mouse, UniProt O55040 1-428)
T1 sequence (looked up): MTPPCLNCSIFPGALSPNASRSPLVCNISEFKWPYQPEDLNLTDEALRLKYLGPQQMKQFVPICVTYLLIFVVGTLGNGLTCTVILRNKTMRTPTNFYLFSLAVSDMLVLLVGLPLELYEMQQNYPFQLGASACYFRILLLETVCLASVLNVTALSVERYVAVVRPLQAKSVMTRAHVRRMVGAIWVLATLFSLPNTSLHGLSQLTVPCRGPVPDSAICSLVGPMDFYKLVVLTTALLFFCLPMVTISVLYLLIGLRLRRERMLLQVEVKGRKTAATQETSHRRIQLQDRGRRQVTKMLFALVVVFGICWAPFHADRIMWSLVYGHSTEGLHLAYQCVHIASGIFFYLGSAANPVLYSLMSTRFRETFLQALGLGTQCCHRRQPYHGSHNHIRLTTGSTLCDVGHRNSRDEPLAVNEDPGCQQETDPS
Test method notes: cell-based or functional assay
Starred links: 1 amine or outer side, 2 acyl side, 3 side chain; linkers in the order of their positions; H or OH if unused. Non-standard residues stand in square brackets, D forms with d. No end group written: not given here. *: point of attachment. Ttds = 1-amino-4,7,10-trioxa-13-tridecanamine succinimic acid spacer, O=C(CCC(=O)[*:2])NCCCOCCOCCOCCCN[*:1]; (PEG)2 40 kDa = branched PEG of 40 kDa linked via the Cys side-chain thiol (code C2 = Cys(PEG)2 40 kDa); Cholesteroyl = cholesterol linked to a cysteine residue via the side-chain thiol; Succinimide(1-Et,3-yl) = CCN1C(=O)CC(*)C1=O; Palmitoyl = CCCCCCCCCCCCCCCC(=O)*
Each entry below carries its recorded EC50 (FLIPR).

Example results:
[[record]]
binder = "Ac-C(Succinimide(1-Et,3-yl))GYFLFRPRN-NH2 (SMILES CCN1C(=O)CC(SC[C@H](NC(C)=O)C(=O)NCC(=O)N[C@@H](Cc2ccc(O)cc2)C(=O)N[C@@H](Cc2ccccc2)C(=O)N[C@@H](CC(C)C)C(=O)N[C@@H](Cc2ccccc2)C(=O)N[C@@H](CCCNC(=N)N)C(=O)N2CCC[C@H]2C(=O)N[C@@H](CCCNC(=N)N)C(=O)N[C@@H](CC(N)=O)C(N)=O)C1=O) [NMU6]"
outcome_measure = "EC50 (FLIPR)"
obs_value = "1 nM"

[[record]]
binder = "Ac-C(Succinimide(1-Et,3-yl))[Ttds]FLFRPRN-NH2 (SMILES CCN1C(=O)CC(SC[C@H](NC(C)=O)C(=O)NCCCOCCOCCOCCCNC(=O)CCC(=O)N[C@@H](Cc2ccccc2)C(=O)N[C@@H](CC(C)C)C(=O)N[C@@H](Cc2ccccc2)C(=O)N[C@@H](CCCNC(=N)N)C(=O)N2CCC[C@H]2C(=O)N[C@@H](CCCNC(=N)N)C(=O)N[C@@H](CC(N)=O)C(N)=O)C1=O) [NMU15]"
outcome_measure = "EC50 (FLIPR)"
obs_value = "1.5 nM"

[[record]]
binder = "GYFLFRPRN-NH2 [NMU3]"
outcome_measure = "EC50 (FLIPR)"
obs_value = "2.9 nM"

[[record]]
binder = "Ac-C(Succinimide(1-Et,3-yl))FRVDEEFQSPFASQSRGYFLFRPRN-NH2 [NMU8]"
outcome_measure = "EC50 (FLIPR)"
obs_value = "6.4 nM"

[[record]]
binder = "Ac-C(Cholesteroyl)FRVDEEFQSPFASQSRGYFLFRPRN-NH2 [NMU10]"
outcome_measure = "EC50 (FLIPR)"
obs_value = "173 nM"


IN: If you can, please state the reported EC50 (FLIPR) value of Ac-C((PEG)2 40 kDa)FRVDEEFQSPFASQSRGYF[dA]WRPRN-NH2 [NMU14] .
OUT: 584 nM

IN: If you can, please state the reported EC50 (FLIPR) value of Palmitoyl-C(Succinimide(1-Et,3-yl))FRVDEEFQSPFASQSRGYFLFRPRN-NH2 [NMU24] .
OUT: 1000 nM

IN: If you can, please state the reported EC50 (FLIPR) value of Ac-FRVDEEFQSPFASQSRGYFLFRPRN-NH2 [NMU2] .
OUT: 2.1 nM

IN: If you can, please state the reported EC50 (FLIPR) value of Palmitoyl-C((PEG)2 40 kDa)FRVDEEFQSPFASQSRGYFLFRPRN-NH2 [NMU25] .
OUT: 10.2 nM
